targetDesc: Glycogen synthase kinase-3 beta (Homo sapiens, UniProt P49841)
Sequence (P49841 whole entry): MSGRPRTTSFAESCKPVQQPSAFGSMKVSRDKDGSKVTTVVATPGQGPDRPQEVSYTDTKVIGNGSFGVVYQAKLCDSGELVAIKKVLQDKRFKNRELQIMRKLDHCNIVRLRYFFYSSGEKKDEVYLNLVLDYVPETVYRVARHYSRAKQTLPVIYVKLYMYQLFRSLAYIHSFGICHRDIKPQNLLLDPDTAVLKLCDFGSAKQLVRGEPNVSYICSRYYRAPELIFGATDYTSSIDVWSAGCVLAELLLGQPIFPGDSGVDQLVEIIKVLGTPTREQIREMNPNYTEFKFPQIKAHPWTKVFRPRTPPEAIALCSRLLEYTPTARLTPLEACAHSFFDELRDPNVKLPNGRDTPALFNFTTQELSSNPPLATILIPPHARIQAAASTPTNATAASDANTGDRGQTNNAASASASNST
measurementKind: IC50 (nM)
The figure you give is taken to be in nM; do not add the unit.

The measured IC50 that CN1CCN(c2ccc(NC(=O)c3ccc4c(c3)/C(=C3/Nc5ccccc5C3=O)C(=O)N4)cc2)CC1 showed for Glycogen synthase kinase-3 beta (Homo sapiens, UniProt P49841) is 100

----------
testDescription: Solubility in water by spectrophotometry
Type: physicochemical
So basically: solubility at 40 µg/mL or higher? That is T. Lower than 40 µg/mL? That is F.

chemSmiles | discreteLabel
CN1CCN(CCNC(=O)c2ccc3c(c2)/C(=C2/Nc4ccccc4C2=O)C(=O)N3)CC1.Cl | T

Req: Confirm if solubility reported for the compound CN(C)CCN(C)C(=O)c1ccc2c(c1)/C(=C1/Nc3ccccc3/C1=N\OCCO[C@@H]1O[C@H](CO)[C@@H](O)[C@H](O)[C@H]1O)C(=O)N2 is 40 µg/mL or above.
Resp: T

Req: Decide: solubility of O=C1Nc2ccc(C(=O)N(CCO)CCO)cc2/C1=C1/Nc2ccccc2C1=O >= 40 µg/mL?
Resp: F

Req: Quick check, solubility >= 40 µg/mL? COc1ccc2c(c1)/C(=C1/Nc3ccccc3/C1=N\OCCO[C@@H]1O[C@H](CO)[C@@H](O)[C@H](O)[C@H]1O)C(=O)N2
Resp: T
